- assay protocol: AUC in po dosed rat
- Assay type: ADME, organism-based
- reported conditions: plasma
Would you mind telling me the reported AUC of each entry?
Write the number in ng·h/mL without appending the unit.

What does the data say about its AUC? Entry: `COc1c(C(=O)Nc2ccc(NS(C)(=O)=O)cc2)cc(N2CCC(=O)NC2=O)cc1C(C)(C)C` 50

What does the data say about its AUC? Entry: `COc1c(C(=O)Nc2ccccc2)cc(N2CCC(=O)NC2=O)cc1C(C)(C)C` 330

What does the data say about its AUC? Entry: `COc1ccc(N2CCC(=O)NC2=O)cc1C(C)(C)C` 5570

---

Would you mind telling me the reported half-life of each entry?
- assay protocol: Half life in iv dosed rat
- Assay type: ADME, organism-based
- reported conditions: in vivo
Write the number in min without appending the unit.

What does the data say about its half-life? Entry: `COc1c(C(=O)Nc2ccc(NS(=O)(=O)CCN3CCOCC3)cc2)cc(N2CCC(=O)NC2=O)cc1C(C)(C)C` 36

What does the data say about its half-life? Entry: `COc1ccc(N2CCC(=O)NC2=O)cc1C(C)(C)C` 228

What does the data say about its half-life? Entry: `COc1c(C(=O)Nc2ccc(NS(C)(=O)=O)cc2)cc(N2CCC(=O)NC2=O)cc1C(C)(C)C` 66

What does the data say about its half-life? Entry: `COc1c(C(=O)Nc2ccccc2)cc(N2CCC(=O)NC2=O)cc1C(C)(C)C` 30

---

- assay protocol: Oral bioavailability in rat
- Type: ADME, organism-based
- reported conditions: in vivo
Would you mind telling me the reported bioavailability of each entry?
Hey, just the number and the unit after it is fine.

What does the data say about its bioavailability? Entry: `COc1ccc(N2CCC(=O)NC2=O)cc1C(C)(C)C` 45%

What does the data say about its bioavailability? Entry: `COc1c(C(=O)Nc2ccc(NS(=O)(=O)CCN3CCOCC3)cc2)cc(N2CCC(=O)NC2=O)cc1C(C)(C)C` 0%

What does the data say about its bioavailability? Entry: `COc1c(C(=O)Nc2ccc(NS(C)(=O)=O)cc2)cc(N2CCC(=O)NC2=O)cc1C(C)(C)C` 1.5%

What does the data say about its bioavailability? Entry: `COc1c(C(=O)Nc2ccccc2)cc(N2CCC(=O)NC2=O)cc1C(C)(C)C` 15%

---

- assay protocol: Solubility of the compound
- Assay type: physicochemical
Would you mind telling me the reported log10 of solubility of each entry?
Please be aware that the numbers have been log10-transformed from solubility in µM.

What does the data say about its log10 of solubility? Entry: `COc1c(C(=O)Nc2ccc(NS(C)(=O)=O)cc2)cc(-n2ccc(=O)[nH]c2=O)cc1C(C)(C)C` 1.11

What does the data say about its log10 of solubility? Entry: `COc1c(C(=O)Nc2ccc(NS(=O)(=O)CCN3CCOCC3)cc2)cc(N2CCC(=O)NC2=O)cc1C(C)(C)C` 1.87

What does the data say about its log10 of solubility? Entry: `COc1c(C(=O)Nc2ccc(NS(C)(=O)=O)cc2)cc(N2CCC(=O)NC2=O)cc1C(C)(C)C` 0.30

What does the data say about its log10 of solubility? Entry: `COc1ccc(N2CCC(=O)NC2=O)cc1C(C)(C)C` 1.86

What does the data say about its log10 of solubility? Entry: `COc1c(C(=O)Nc2ccccc2)cc(N2CCC(=O)NC2=O)cc1C(C)(C)C` 1.08
